The reported measurements were obtained from patent US20210196796A1.

- System tested: T1, orthogonal hCD122 receptor (hoRb), hCD122 with H133D and Y134F (human, UniProt P14784 27-550)
- T1 sequence: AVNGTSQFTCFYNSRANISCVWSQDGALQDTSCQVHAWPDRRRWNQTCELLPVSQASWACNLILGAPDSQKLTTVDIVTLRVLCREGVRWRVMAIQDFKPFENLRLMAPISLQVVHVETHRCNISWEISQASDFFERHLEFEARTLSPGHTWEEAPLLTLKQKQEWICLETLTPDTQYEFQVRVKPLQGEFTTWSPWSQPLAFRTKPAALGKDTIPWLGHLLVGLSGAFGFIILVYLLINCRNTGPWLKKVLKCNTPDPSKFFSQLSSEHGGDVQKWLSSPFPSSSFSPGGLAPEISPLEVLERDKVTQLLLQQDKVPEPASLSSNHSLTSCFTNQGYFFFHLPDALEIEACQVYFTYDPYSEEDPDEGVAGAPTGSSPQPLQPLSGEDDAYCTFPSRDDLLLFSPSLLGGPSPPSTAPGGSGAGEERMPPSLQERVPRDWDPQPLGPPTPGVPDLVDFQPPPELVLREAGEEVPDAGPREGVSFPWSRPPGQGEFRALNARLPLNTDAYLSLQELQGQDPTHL
- Procedure summary: cell-based or functional assay
Measurement name: 3F8 Ortho Proliferation Signal 1:50 (cts/min)

# Binder, Measurement name, Data value
measured = [
    ("Q126I, SQVLKA (ligand) APTSSSTKKTQLQLSQLLVLLKAILNGINNYKNPKLTRMLTFKFYMPKKATELKHLQCLEEELKPLEEVLNLAQSKNFHLRPRDLISNINVIVLELKGSETTFMCEYADETATIVEFLNRWITFCISIISTLT", "3F8 Ortho Proliferation Signal 1:50", 9510),
    ("ΔT51, SQVLKA (ligand) APTSSSTKKTQLQLSQLLVLLKAILNGINNYKNPKLTRMLTFKFYMPKKAELKHLQCLEEELKPLEEVLNLAQSKNFHLRPRDLISNINVIVLELKGSETTFMCEYADETATIVEFLNRWITFCQSIISTLT", "3F8 Ortho Proliferation Signal 1:50", 1060),
]
